- System: Staphylococcus aureus (BAA-1717)
- procedureSummary: Checkerboard combination / MIC assay with S. aureus BAA-1717 (MRSA)
- Type: cell-based
- testContext: Ramizol 0.03125 μg/mL; S. aureus ATCC BAA-1717
readout: MIC of antibiotic in combination with Ramizol
Kindly format the answer as number then unit.

Asked: Which MIC of antibiotic in combination with Ramizol is reported for this compound? CO/N=C(\C(=O)N[C@@H]1C(=O)N2C(C(=O)[O-])=C(C[N+]3(C)CCCC3)CS[C@H]12)c1csc(N)n1 [Cefepime]
Given back: 256 µg/mL

Asked: So what's the measured MIC of antibiotic in combination with Ramizol for this one? C/C(=C\C(=O)OCCCCCCCCC(=O)O)C[C@@H]1OC[C@H](C[C@@H]2O[C@H]2[C@@H](C)[C@H](C)O)[C@@H](O)[C@H]1O [Mupirocin]
Given back: 0.5 µg/mL

###

- Test system: Staphylococcus aureus (ATCC 29213)
- procedureSummary: Checkerboard combination / MIC assay with S. aureus ATCC 29213
- Type: cell-based
- testContext: Chlopam 0.25 μg/mL + labelled antibiotic at MIC of same cell; S. aureus ATCC 29213
readout: FICI of combination with Chlopam
Keep it simple and answer with nothing but the number.

See these solved cases before continuing.
CN[C@H](CC(C)C)C(=O)N[C@H]1C(=O)N[C@@H](CC(N)=O)C(=O)N[C@H]2C(=O)N[C@H]3C(=O)N[C@H](C(=O)N[C@H](C(=O)O)c4cc(O)cc(O)c4-c4cc3ccc4O)[C@H](O)c3ccc(c(Cl)c3)Oc3cc2cc(c3O[C@@H]2O[C@H](CO)[C@@H](O)[C@H](O)[C@H]2O[C@H]2C[C@](C)(N)[C@H](O)[C@H](C)O2)Oc2ccc(cc2Cl)[C@H]1O [Vancomycin]    1.0
CO/N=C(\C(=O)N[C@@H]1C(=O)N2C(C(=O)[O-])=C(C[N+]3(C)CCCC3)CS[C@H]12)c1csc(N)n1 [Cefepime]    1.0
C/C(=C\C(=O)OCCCCCCCCC(=O)O)C[C@@H]1OC[C@H](C[C@@H]2O[C@H]2[C@@H](C)[C@H](C)O)[C@@H](O)[C@H]1O [Mupirocin]    1.0
Cc1onc(-c2ccccc2)c1C(=O)N[C@@H]1C(=O)N2[C@@H]1SC(C)(C)[C@@H]2C(=O)O [Oxacillin]    0.8
CCCCCCCCCC(=O)N[C@@H](Cc1c[nH]c2ccccc12)C(=O)N[C@H](CC(N)=O)C(=O)N[C@@H](CC(=O)O)C(=O)N[C@@H]1C(=O)NCC(=O)N[C@@H](CCCN)C(=O)N[C@@H](CC(=O)O)C(=O)N[C@H](C)C(=O)N[C@@H](CC(=O)O)C(=O)NCC(=O)N[C@H](CO)C(=O)N[C@@H]([C@H](C)CC(=O)O)C(=O)N[C@@H](CC(=O)c2ccccc2N)C(=O)O[C@@H]1C [Daptomycin]    1.0

API: the following record is the query input.
Asked: Provide value of FICI of combination with Chlopam for this record tested with Staphylococcus aureus (ATCC 29213): CC(=O)NC[C@H]1CN(c2ccc(N3CCOCC3)c(F)c2)C(=O)O1 [Linezolid]
Given back: 0.8

###

- System: Staphylococcus aureus (ATCC 29213)
- procedureSummary: Checkerboard combination / MIC assay with S. aureus ATCC 29213
- Assay type: cell-based
- testContext: Ramizol 0.125 μg/mL; S. aureus ATCC 29213
readout: MIC of antibiotic in combination with Ramizol (µg/mL)
Number in µg/mL, nothing else.

CCCCCCCCCC(=O)N[C@@H](Cc1c[nH]c2ccccc12)C(=O)N[C@H](CC(N)=O)C(=O)N[C@@H](CC(=O)O)C(=O)N[C@@H]1C(=O)NCC(=O)N[C@@H](CCCN)C(=O)N[C@@H](CC(=O)O)C(=O)N[C@H](C)C(=O)N[C@@H](CC(=O)O)C(=O)NCC(=O)N[C@H](CO)C(=O)N[C@@H]([C@H](C)CC(=O)O)C(=O)N[C@@H](CC(=O)c2ccccc2N)C(=O)O[C@@H]1C [Daptomycin]    0.5
CC(=O)NC[C@H]1CN(c2ccc(N3CCOCC3)c(F)c2)C(=O)O1 [Linezolid]    4
C/C(=C\C(=O)OCCCCCCCCC(=O)O)C[C@@H]1OC[C@H](C[C@@H]2O[C@H]2[C@@H](C)[C@H](C)O)[C@@H](O)[C@H]1O [Mupirocin]    0.5

Asked: Consider the compound CO/N=C(\C(=O)N[C@@H]1C(=O)N2C(C(=O)[O-])=C(C[N+]3(C)CCCC3)CS[C@H]12)c1csc(N)n1 [Cefepime] and give its measured MIC of antibiotic in combination with Ramizol.
Given back: 4

Asked: Give the measured MIC of antibiotic in combination with Ramizol of Cc1onc(-c2ccccc2)c1C(=O)N[C@@H]1C(=O)N2[C@@H]1SC(C)(C)[C@@H]2C(=O)O [Oxacillin] .
Given back: 0.5

Asked: Query (compound): CN[C@H](CC(C)C)C(=O)N[C@H]1C(=O)N[C@@H](CC(N)=O)C(=O)N[C@H]2C(=O)N[C@H]3C(=O)N[C@H](C(=O)N[C@H](C(=O)O)c4cc(O)cc(O)c4-c4cc3ccc4O)[C@H](O)c3ccc(c(Cl)c3)Oc3cc2cc(c3O[C@@H]2O[C@H](CO)[C@@H](O)[C@H](O)[C@H]2O[C@H]2C[C@](C)(N)[C@H](O)[C@H](C)O2)Oc2ccc(cc2Cl)[C@H]1O [Vancomycin] ; field requested: MIC of antibiotic in combination with Ramizol
Given back: 1
